experimental_target: full length recombinant Pim-2 protein (Homo sapiens, UniProt Q9P1W9)
Construct: by full length recombinant Pim-1, Pim-2, or Pim-3 protein; hexahistidine tag followed by a thrombin cleavage site (N); made in house; host or cells: Sf9 (baculovirus) or E. coli (pET28)
Sequence (Q9P1W9 whole entry): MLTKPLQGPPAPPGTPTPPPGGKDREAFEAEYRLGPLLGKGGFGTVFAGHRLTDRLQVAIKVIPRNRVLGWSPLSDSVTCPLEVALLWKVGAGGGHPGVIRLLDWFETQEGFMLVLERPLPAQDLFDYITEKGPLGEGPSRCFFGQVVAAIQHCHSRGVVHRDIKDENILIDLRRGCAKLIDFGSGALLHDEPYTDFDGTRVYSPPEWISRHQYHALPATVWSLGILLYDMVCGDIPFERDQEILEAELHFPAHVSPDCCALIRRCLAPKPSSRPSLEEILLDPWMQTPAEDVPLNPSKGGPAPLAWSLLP
test_name: Pim-2 enzyme assay (HTRF, phosphorylation of biotinylated-BAD (S112) peptide)
Assay type: biochemical
test_conditions: enzyme assay, Pim-2; read-out: Pim2_IC50
Entries annotated with measured log10(IC50)
Each number you see is log10 of IC50, and the unit inside the log is nM.

Worked set:
- NC1CCN(c2cncc(-c3n[nH]c4ccc(Br)cc34)n2)CC1: 1.36
- C[C@H]1CCNC[C@H]1Oc1cncc(-c2n[nH]c3ccc(-c4c(F)cccc4F)cc23)n1: 1.20
- CC(C)Oc1cncc(-c2ccc3[nH]cc(-c4cncc(N[C@@H]5CCCNC5)n4)c3c2)n1: 2.30
- COc1cc(OC)cc(-c2ccc3[nH]nc(-c4cncc(N5CCC(N)CC5)n4)c3c2)c1: 1.78
- CN1CCN(c2ccc3[nH]nc(-c4cncc(N5CCC(N)CC5)n4)c3c2)C1=O: 1.76

For the molecule shown here, CS(=O)(=O)c1ccc(-c2ccc3[nH]nc(-c4cncc(N5CCC(N)CC5)n4)c3c2)cc1 , give the reported log10(IC50).
1.45

For the molecule shown here, CCC(=O)Nc1ccc2[nH]cc(-c3cncc(N4CCC(N)CC4)n3)c2c1 , give the reported log10(IC50).
3.41

For the molecule shown here, NC1CCN(c2cncc(-c3n[nH]c4ccc(-c5cc(C(=O)Nc6ccccc6)ccc5F)cc34)n2)CC1 , give the reported log10(IC50).
1.36

----------
experimental_target: Pim-2 stably transfected into the U2OS human osteogenic sarcoma line (Homo sapiens)
Construct: expressed in transfected cells; host or cells: U2OS human osteogenic sarcoma line
Sequence (Q9P1W9 whole entry): as above
test_name: Pim cell assay, phospho-BAD normalized against total BAD, U2OS stably transfected with Pim-2; note: high dose 31.6 µM
Format: cell-based
test_conditions: U2OS cells stably transfected with Pim-2, phospho-BAD; high dose […]; read-out: Pim2_Cell_IC50
Entries annotated with measured IC50
# unit: µM | format: bare number

Worked set:
- NC1CCN(c2cncc(-c3n[nH]c4ccc(-c5cc(C(=O)N6CCCCC6)ccc5F)cc34)n2)CC1 [Example 41]: 8.52
- O=C(NC1CC1)c1ccc(F)c(-c2ccc3[nH]nc(-c4cncc(O[C@@H]5CCCNC5)n4)c3c2)c1 [Example 139]: 3.78

For the molecule shown here, COc1cccc(-c2ccc3[nH]nc(-c4cncc(O[C@@H]5CCCNC5)n4)c3c2)c1F [Example 131] , give the reported IC50.
8.91

----------
experimental_target: Pim-1 stably transfected into the U2OS human osteogenic sarcoma line (Homo sapiens, UniProt P11309)
Construct: expressed in transfected cells; host or cells: U2OS human osteogenic sarcoma line
Sequence (P11309 whole entry): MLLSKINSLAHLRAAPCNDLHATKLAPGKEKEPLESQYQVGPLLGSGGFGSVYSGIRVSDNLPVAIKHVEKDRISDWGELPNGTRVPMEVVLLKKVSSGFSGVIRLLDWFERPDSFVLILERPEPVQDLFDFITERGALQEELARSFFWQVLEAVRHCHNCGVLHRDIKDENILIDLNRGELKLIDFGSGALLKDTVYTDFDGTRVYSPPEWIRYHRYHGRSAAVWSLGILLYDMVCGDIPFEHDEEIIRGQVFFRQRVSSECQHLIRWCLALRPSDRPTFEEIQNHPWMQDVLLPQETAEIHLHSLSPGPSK
test_name: Pim cell assay, phospho-BAD normalized against total BAD, U2OS stably transfected with Pim-1
Type: cell-based
test_conditions: U2OS stably transfected with Pim-1; phospho-BAD normalized against total BAD; 29 min incubation; read-out: Pim1_Cell_IC50_
Entries annotated with measured IC50
# unit: nM | format: bare number

• NC1CCN(c2cncc(-c3c[nH]c4ccc(-c5cncc(NC6CC6)n5)cc34)n2)CC1 = 338
• CC(C)OC(=O)c1ccc2[nH]nc(-c3cncc(N4CCC(N)CC4)n3)c2c1 = 204

For the compound shown here, COc1cncc(-c2n[nH]c3ccc(-c4cncc(NC5CC5)n4)cc23)n1 , give the reported IC50.
44

For the compound shown here, c1cc2[nH]cc(-c3cncc(O[C@@H]4CCCNC4)n3)c2cc1-c1cncc(N2CCCC2)n1 , give the reported IC50.
995

----------
experimental_target: full length recombinant Pim-3 protein (Homo sapiens)
Construct: by full length recombinant Pim-1, Pim-2, or Pim-3 protein
test_name: Pim-3 enzyme assay (HTRF, phosphorylation of biotinylated-BAD (S112) peptide)
test_conditions: read-out: Pim3 IC50
property: IC50
The reply should read as a number followed by its unit.

Worked set:
- Nc1cc(-c2ccc3[nH]nc(-c4cncc(N5CCC(N)CC5)n4)c3c2)ccc1N1CCOCC1 [Example 105]: 5 nM
- Fc1cccnc1-c1ccc2[nH]nc(-c3cncc(O[C@@H]4CCCNC4)n3)c2c1 [Example 124]: 11 nM
- CC(C)Oc1cncc(-c2ccc3[nH]cc(-c4cncc(N(C)C)n4)c3c2)n1 [Example 230]: 50 nM

For the compound shown here, CC(C)Nc1cncc(-c2n[nH]c3ccc(-c4c(F)cccc4F)cc23)n1 [Example 182] , give the reported IC50.
49 nM

For the compound shown here, Fc1cccc(F)c1-c1ccc2[nH]cc(-c3nccc(O[C@@H]4CCCNC4)n3)c2c1 [Example 209] , give the reported IC50.
49 nM

----------
Entries annotated with measured IC50
experimental_target: full length recombinant Pim-2 protein (Homo sapiens)
Construct: by full length recombinant Pim-1, Pim-2, or Pim-3 protein; hexahistidine tag followed by a thrombin cleavage site (N); made in house; host or cells: Sf9 (baculovirus) or E. coli (pET28)
test_name: Pim-2 enzyme assay (HTRF, phosphorylation of biotinylated-BAD (S112) peptide)
Assay type: biochemical
test_conditions: enzyme assay, Pim-2; read-out: Pim2_IC50

- CN(c1cncc(-c2n[nH]c3ccc(-c4c(F)cccc4F)cc23)n1)C1CCCNC1 (centres unmarked): 61 nM

API: value(readout= IC50, system= full length recombinant Pim-2 protein (Homo sapiens), query= CC(C)Oc1cccc(-c2ccc3[nH]nc(-c4cncc(N5CCC(N)CC5)n4)c3c2)n1 )
150 nM

API: value(readout= IC50, system= full length recombinant Pim-2 protein (Homo sapiens), query= NC1CCN(c2cncc(-c3n[nH]c4ccc(-c5cccc(O)c5)cc34)n2)CC1 )
27 nM

API: value(readout= IC50, system= full length recombinant Pim-2 protein (Homo sapiens), query= c1cc2c(cc1-c1ccc3[nH]nc(-c4cncc(O[C@@H]5CCCNC5)n4)c3c1)OCCO2 )
19 nM

API: value(readout= IC50, system= full length recombinant Pim-2 protein (Homo sapiens), query= COc1nc2ccccc2cc1-c1ccc2[nH]nc(-c3cncc(N4CCC(N)CC4)n3)c2c1 )
769 nM

API: value(readout= IC50, system= full length recombinant Pim-2 protein (Homo sapiens), query= NC1CCN(c2cncc(-c3n[nH]c4ccc(-c5ccnc6cc(OC(F)(F)F)ccc56)cc34)n2)CC1 )
292 nM

API: value(readout= IC50, system= full length recombinant Pim-2 protein (Homo sapiens), query= C1=C(c2ccc3[nH]nc(-c4cncc(O[C@@H]5CCCNC5)n4)c3c2)COCC1 )
71 nM

API: value(readout= IC50, system= full length recombinant Pim-2 protein (Homo sapiens), query= NC1CCN(c2cncc(-c3c[nH]c4ccc([N+](=O)[O-])cc34)n2)CC1 )
65 nM

----------
experimental_target: Pim-1 stably transfected into the U2OS human osteogenic sarcoma line (Homo sapiens, UniProt P11309)
Construct: expressed in transfected cells; host or cells: U2OS human osteogenic sarcoma line
test_name: Pim cell assay, phospho-BAD normalized against total BAD, U2OS stably transfected with Pim-1
Type: cell-based
test_conditions: read-out: Pim1_Cell_IC50
property: IC50 (µM)
# unit: µM | format: bare number

Worked set:
- CC(C)Oc1cncc(-c2ccc3[nH]cc(-c4cncc(N(C)C)n4)c3c2)n1: 2.83
- COc1cncc(-c2ccc3[nH]nc(-c4ccnc(N5CCC(N)CC5)n4)c3c2)c1: 0.089
- Fc1cccc(F)c1-c1ccc2[nH]cc(-c3cncc(NC4CCCNC4)c3)c2n1 (stereo not drawn): 1.08
- CC(C)Oc1cncc(-c2ccc3[nH]cc(-c4ccnc(N)c4)c3c2)n1: 1.4
- CC(C)Oc1cncc(-c2ccc3[nH]cc(-c4cncc(N[C@@H]5CCCNC5)n4)c3c2)n1: 0.405
- CC(C)Oc1cncc(-c2ccc3[nH]cc(-c4ccc5cn[nH]c5c4)c3c2)n1: 1.92

For the compound shown here, COc1cncc(-c2ccc3[nH]nc(-c4cnc(N5CCC(N)CC5)s4)c3c2)c1 , give the reported IC50.
0.6

For the compound shown here, Fc1cccc(F)c1-c1ccc2[nH]cc(-c3nccc(O[C@@H]4CCCNC4)n3)c2c1 , give the reported IC50.
1.18

For the compound shown here, CN1CCN(c2ccc3[nH]nc(-c4cncc(N5CCC(N)CC5)n4)c3c2)C1=O , give the reported IC50.
2.23

For the compound shown here, Fc1cccc(F)c1-c1ccc2[nH]cc(-c3nccc(N[C@@H]4CCCNC4)n3)c2c1 , give the reported IC50.
0.497

----------
experimental_target: full length recombinant Pim-1 protein (Homo sapiens, UniProt P11309)
Construct: by full length recombinant Pim-1, Pim-2, or Pim-3 protein; hexahistidine tag followed by a thrombin cleavage site (N); made in house; host or cells: Sf9 (baculovirus) or E. coli (pET28)
Sequence (P11309 whole entry): as above
test_name: Pim-1 enzyme assay (HTRF, phosphorylation of biotinylated-BAD (S112) peptide)
Assay type: biochemical
test_conditions: read-out: Pim_1_IC50
Entries annotated with measured pIC50
Scale note: pIC50 = -log10(concentration in M).

Worked set:
* OCc1cccc(-c2ccc3[nH]cc(-c4cncc(O[C@@H]5CCCNC5)n4)c3c2)c1 | 8.15
* c1cc(-c2ccc3[nH]nc(-c4cncc(O[C@@H]5CCCNC5)n4)c3c2)nc(NC2CC2)n1 | 8.30
* CC(C)Oc1cncc(-c2ccc3[nH]cc(-c4nn(C(C)C)c(=O)o4)c3c2)n1 | 7.15
* CC(C)Nc1nc(-c2c[nH]c3ccc(-c4c(F)cccc4F)cc23)cc(=O)[nH]1 | 8.05
* NC1CCN(c2cncc(-c3n[nH]c4ccc(-c5cc6[nH]ccc6cn5)cc34)n2)CC1 | 8.30
* CC(O)c1cccc(-c2ccc3[nH]cc(-c4cncc(O[C@@H]5CCCNC5)n4)c3c2)c1 (mixture of isomers) | 8.05

For the compound shown here, CC(C)Oc1ccc(-c2ccc3[nH]cc(-c4cncc(O[C@@H]5CCCNC5)n4)c3c2)cc1 , give the reported pIC50.
8.40

For the compound shown here, Fc1cccc(F)c1-c1ccc2[nH]nc(-c3cncc(CC4CCCNC4)n3)c2c1 (single isomer, unassigned) [Example 274] , give the reported pIC50.
7.70
